test system: HIV-1 LTR-III G-quadruplex (FAM/TAMRA-labeled LTR-III); assay: FRET melting assay, LTR-III G4; format: binding; conditions: Table S1 primary screening, ligand:ODN 50:1, singlicate
endpointName: LTR-III ΔTm (°C)
Report as a plain number; the unit °C is understood.

Endpoint output: LTR-III ΔTm of O=C1NC(=S)SC1=Cc1ccc(O)cc1Br [SAI 122] . Value?
0.1

Endpoint output: LTR-III ΔTm of CC1=NC(=Cc2ccc(F)cc2)C(=O)N1C [SV 50.10] . Value?
-0.2

Endpoint output: LTR-III ΔTm of CC(C)(C)[Si](Oc1ccc(C=CC=O)cc1)(c1ccccc1)c1ccccc1 [M 1373.2] . Value?
-0.5

Endpoint output: LTR-III ΔTm of CN1C(=O)C(=Cc2ccc(N(C)C)cc2)N=C1C=Cc1cc(Br)c(O)c(Br)c1 [M 2368c] . Value?
0

Endpoint output: LTR-III ΔTm of COc1cc(O)ccc1C=C1N=C2C=CC=CN2C1=O [N 1123] . Value?
0.3

Endpoint output: LTR-III ΔTm of CNC(=O)C(=Cc1ccccc1)N=P(c1ccccc1)(c1ccccc1)c1ccccc1 [N 832] . Value?
-0.5

Endpoint output: LTR-III ΔTm of CCOC(=O)c1noc(=O)c(O)c1-c1ccc(OC)cc1 [SA 562B] . Value?
-1

Endpoint output: LTR-III ΔTm of CC1=NC(=Cc2ccccc2)C(=O)N1CCNC(=O)OC(C)(C)C [M 2022d] . Value?
-0.3

Endpoint output: LTR-III ΔTm of CC(=O)Oc1ccc(C=C2N=C(C)N(CCNC(=O)OC(C)(C)C)C2=O)cc1 [M 678] . Value?
-0.4

Endpoint output: LTR-III ΔTm of CSC1=NC(=Cc2ccc(O[Si](c3ccccc3)(c3ccccc3)C(C)(C)C)cc2)C(=O)N1C [SA 497] . Value?
-0.4

----------
tested on: HIV-1 LTR-III G-quadruplex (FAM/TAMRA-labeled LTR-III); assay: FRET melting assay, LTR-III G4; assay type: binding; conditions: Table S1 primary screening, ligand:ODN 50:1, singlicate
Cut-off 0.1 °C on LTR-III ΔTm, inclusive. At or above means Satisfied; below means Not satisfied.

Record O=C1NC(=S)SC1=Cc1ccc(O)c(Br)c1 ; criterion: LTR-III ΔTm no lower than 0.1 °C. Met?
Not satisfied

Record CC(C)CCC1=NC(=Cc2ccc(O)cc2)C(=O)N1 ; criterion: LTR-III ΔTm no lower than 0.1 °C. Met?
Not satisfied

Record COc1cc(O)ccc1/C=C1\N=C(C(=O)c2ccccc2)N(C)C1=O ; criterion: LTR-III ΔTm no lower than 0.1 °C. Met?
Satisfied

Record COc1ccc(/C=C/C2=NC(=C\c3ccc(O)cc3)/C(=O)N2CCNC(C)=O)cc1 ; criterion: LTR-III ΔTm no lower than 0.1 °C. Met?
Satisfied

Record COc1ccc(C=CC2=NC(=Cc3ccc([N+](=O)[O-])cc3)C(=O)N2C)cc1 ; criterion: LTR-III ΔTm no lower than 0.1 °C. Met?
Satisfied

Record COc1ccc(OC)c(C=C2N=C(C=Cc3cc(Br)c(O)c(Br)c3)N(C)C2=O)c1 [N 851A] ; criterion: LTR-III ΔTm no lower than 0.1 °C. Met?
Satisfied

Record COc1ccc(C(O)(c2ccccc2)c2ccccn2)cc1 (stereo not shown) ; criterion: LTR-III ΔTm no lower than 0.1 °C. Met?
Not satisfied

Record CN1C(=O)C(=Cc2ccc(O)cc2)N=C1C=Cc1cccc(C(F)(F)F)c1 ; criterion: LTR-III ΔTm no lower than 0.1 °C. Met?
Satisfied

Record COc1ccc(C=C2N=C(C)N(C3CCCCC3)C2=O)cc1 ; criterion: LTR-III ΔTm no lower than 0.1 °C. Met?
Not satisfied

----------
test system: HIV-1 LTR-III G-quadruplex (FAM/TAMRA-labeled LTR-III); experiment: FRET melting assay, LTR-III G4; assay type: binding; details: Table S1 primary screening, ligand:ODN 50:1, singlicate
Give LTR-III ΔTm for every item shown.

Endpoint output: LTR-III ΔTm of COc1ccc(OC)c(/C=C2N=C(/C=C/c3ccncc3)N(C)C\2=O)c1 . Value?
2.6 °C

Endpoint output: LTR-III ΔTm of CC(=O)Oc1ccc(C=C2N=C(C=Cc3ccccc3)N(C)C2=O)cc1 [M 1009A] . Value?
0.5 °C

Endpoint output: LTR-III ΔTm of COc1ccc(/C=C2\N=C(C)N(C)C2=O)cc1OC . Value?
0 °C

Endpoint output: LTR-III ΔTm of CC1=NC(=Cc2cc3c4c(c2)CCCN4CCC3)C(=O)N1CCO . Value?
1 °C

Endpoint output: LTR-III ΔTm of COc1ccc(C=C2N=C(C)N(CC(N)=O)C2=O)cc1 . Value?
-2.1 °C

----------
tested on: HIV-1 LTR-III G-quadruplex (FAM/TAMRA-labeled LTR-III); test: FRET melting assay, LTR-III G4; format: binding; conditions: Table S12; average stabilization
Give LTR-III (average) for every item shown.

# returns recorded LTR-III (average) (system: HIV-1 LTR-III G-quadruplex (FAM/TAMRA-labeled LTR-III)) for O=C1/C(=C/c2cccs2)N=C(/C=C/c2ccc(O)cc2)N1CCc1ccc(O)cc1 [MID 161]
-1,7 °C

# returns recorded LTR-III (average) (system: HIV-1 LTR-III G-quadruplex (FAM/TAMRA-labeled LTR-III)) for COc1cc(/C=C2N=C(/C=C/c3cc(Br)c(O)c(Br)c3)N(C)C\2=O)cc(OC)c1O [ZS 260.1]
8,35 °C

# returns recorded LTR-III (average) (system: HIV-1 LTR-III G-quadruplex (FAM/TAMRA-labeled LTR-III)) for COc1ccc(/C=C/C2=NC(=C\c3ccc(O)cc3)/C(=O)N2CCNC(C)=O)cc1 [ccE 4]
2,8 °C

# returns recorded LTR-III (average) (system: HIV-1 LTR-III G-quadruplex (FAM/TAMRA-labeled LTR-III)) for COc1ccc(C=C2N=C(CC(C)C)C(=O)N(OC)C2=O)cc1 [M 802]
-2,3 °C

# returns recorded LTR-III (average) (system: HIV-1 LTR-III G-quadruplex (FAM/TAMRA-labeled LTR-III)) for COc1cc(/C=C2N=C(/C=C/C=C/c3ccc(N(C)C)cc3)N(C)C\2=O)cc(OC)c1O [N1195]
4,2 °C

# returns recorded LTR-III (average) (system: HIV-1 LTR-III G-quadruplex (FAM/TAMRA-labeled LTR-III)) for COc1c(O)ccc(/C=C2N=C(/C=C/c3ccncc3)N(C)C\2=O)c1OC [N 1068.2]
6,9 °C

# returns recorded LTR-III (average) (system: HIV-1 LTR-III G-quadruplex (FAM/TAMRA-labeled LTR-III)) for COc1cc(/C=C2N=C(/C=C/c3cc(OC)c(O)c(OC)c3)N(C)C\2=O)cc(OC)c1O [N1193]
14 °C

# returns recorded LTR-III (average) (system: HIV-1 LTR-III G-quadruplex (FAM/TAMRA-labeled LTR-III)) for COc1ccc(/C=C/C2=NC(=C\c3ccc(O)cc3OC)/C(=O)N2C)cc1 [N 1052]
4,5 °C

# returns recorded LTR-III (average) (system: HIV-1 LTR-III G-quadruplex (FAM/TAMRA-labeled LTR-III)) for COc1ccc(C=C2N=C(C)N(CC(N)=O)C2=O)cc1 [SA 120]
-1,35 °C

----------
Give LTR-III ΔTm for every item shown.
tested on: HIV-1 LTR-III G-quadruplex (FAM/TAMRA-labeled LTR-III); test: FRET melting assay, LTR-III G4; assay type: binding; conditions: Table S1 primary screening, ligand:ODN 50:1, singlicate
Please answer using the number first and the unit second.

Endpoint output: LTR-III ΔTm of COc1ccc(C=C2N=C(SC)N(C)C2=O)cc1 . Value?
0.4 °C

Endpoint output: LTR-III ΔTm of CC1=CC(C)(C)N(C)c2ccc(C=C3N=C(C)N(C)C3=O)cc21 . Value?
0.6 °C

Endpoint output: LTR-III ΔTm of COc1cc(O)ccc1C=C1N=C(C=CN2CCCC2)N(C)C1=O . Value?
3 °C

Endpoint output: LTR-III ΔTm of CCN(CC)c1ccc(C=C2N=C(C=Cc3ccncc3)N(C)C2=O)cc1 . Value?
0.8 °C

Endpoint output: LTR-III ΔTm of CCN(CC)C(=S)Oc1ccc(C=C2N=C(c3ccccc3)N(C)C2=O)cc1 . Value?
-0.4 °C

Endpoint output: LTR-III ΔTm of COc1c(O)ccc(/C=C2\N=C(C)N(C)C2=O)c1O . Value?
1.4 °C

Endpoint output: LTR-III ΔTm of CN1C(=O)C(=Cc2ccc(O)cc2)N=C1C=Cc1cc(Cl)nc(Cl)c1 . Value?
-0.2 °C

Endpoint output: LTR-III ΔTm of CC1=NC(=Cc2ccc([N+](=O)[O-])cc2)C(=O)N1Cc1ccccc1 . Value?
-0.9 °C

Endpoint output: LTR-III ΔTm of CC1=NC(=Cc2ccc(O)cc2O)C(=O)N1C . Value?
-0.1 °C

Endpoint output: LTR-III ΔTm of CC1=NC(=Cc2cccc([N+](=O)[O-])c2)C(=O)N1C . Value?
-0.9 °C

Endpoint output: LTR-III ΔTm of COc1cc(O)ccc1/C=C1N=C(/C=C/N(C)C)N(C)C\1=O . Value?
2.3 °C

Endpoint output: LTR-III ΔTm of CC1=NC(=C(N)c2ccc(Cl)cc2)C(=O)N1C . Value?
-0.3 °C

Endpoint output: LTR-III ΔTm of CCC1=NC(=Cc2c[nH]c3ccccc23)C(=O)O1 . Value?
0 °C

Endpoint output: LTR-III ΔTm of COc1ccc(C=C2N=C(C)N(CCNC(=O)OC(C)(C)C)C2=O)cc1 [M 2022b] . Value?
0 °C

Endpoint output: LTR-III ΔTm of COc1ccc(C=C2N=C(C)N(Cc3ccccc3)C2=O)cc1 . Value?
-0.3 °C

Endpoint output: LTR-III ΔTm of CC(=O)NC(=Cc1ccc([N+](=O)[O-])cc1)C(=O)NC1CCCCC1 . Value?
-0.3 °C

Endpoint output: LTR-III ΔTm of CC(=O)NCCN1C(=O)C(=Cc2ccc(O)cc2)N=C1C=Cc1ccc(O)cc1 . Value?
-0.1 °C

Endpoint output: LTR-III ΔTm of COC(=O)c1ccc(C=C2N=C(C=Cc3ccc(OC)cc3)N(C)C2=O)cc1 . Value?
0.8 °C

Endpoint output: LTR-III ΔTm of CN1C(=O)C(=Cc2ccc(O)cc2)N=C1C=Cc1ccc(N(C)C)cc1 . Value?
0.3 °C

Endpoint output: LTR-III ΔTm of CC(C)C1=NC(=Cc2ccc(O)cc2)C(=O)N1C . Value?
-0.7 °C
